test: Half life in Lewis rat at 1 mg/kg, po measured at 4 to 72 hrs; format: ADME, organism-based; details: in vivo, time 4-72 hrs
Result Type: log10 of half-life (log10 of the value in min)

- Compound: "CCCCCCCOC1CCc2cc([C@H]3CC[C@](N)(CO)C3)ccc2C1 (stereo in doubt; 33a)"
  Assay Value: 3.24
- Compound: "CC/C=C\\CC[C@@H]1CCc2cc([C@H]3CC[C@](N)(CO)C3)ccc2C1"
  Assay Value: 2.48
- Compound: "C=CCCCC[C@@H]1CCc2cc([C@H]3CC[C@](N)(CO)C3)ccc2C1"
  Assay Value: 3.45
- Compound: "CCC/C=C\\CC1CCc2cc([C@H]3CC[C@](N)(CO)C3)ccc2C1 (single isomer, unassigned)"
  Assay Value: 3.55
- Compound: "CC/C=C/CC[C@@H]1CCc2cc([C@H]3CC[C@](N)(CO)C3)ccc2C1"
  Assay Value: 2.38
- Compound: "CCC/C=C/CC1CCc2cc([C@H]3CC[C@](N)(CO)C3)ccc2C1 (single isomer, unassigned)"
  Assay Value: 3.57
- Compound: "CCCCSC[C@@H]1CCc2cc([C@H]3CC[C@](N)(CO)C3)ccc2C1"
  Assay Value: 3.21
